Hello, the source for this data is patent US20230202974A1, in case you need it.

Biological target: caspase-6 (Homo sapiens, UniProt P55212)
Sequence (P55212 24-293): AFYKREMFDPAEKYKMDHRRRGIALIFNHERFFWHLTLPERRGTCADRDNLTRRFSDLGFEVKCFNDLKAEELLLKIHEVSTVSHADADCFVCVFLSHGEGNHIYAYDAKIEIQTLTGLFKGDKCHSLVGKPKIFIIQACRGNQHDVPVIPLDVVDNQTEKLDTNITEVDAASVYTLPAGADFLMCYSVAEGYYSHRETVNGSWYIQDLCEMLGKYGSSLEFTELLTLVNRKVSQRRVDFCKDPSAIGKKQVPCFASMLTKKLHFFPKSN
Test: caspase-6-mediated cleavage of laminA following staurosporine treatment in SKNAS cells
Type: cell-based
Set-up: endogenous in cells
Settings: following staurosporine (STS) treatment, read-out: IC50, inhibition of caspase-6-mediated cleavage of laminA
READOUT_KIND: IC50 (nM)

> print(dat)
                                        smi  readout.unit  recorded.number
1  C=CS(=O)(=O)N[C@@H]1CCCN(Cc2nc3cc(OC(F)(F)F)c(F)cc3[nH]2)C1            nM                6
